Collected cell viability values appear next to each entry.
- Tested on: DLD1
- method: cell viability (CellTiter-Glo) relative to plate median (fraction of plate median); higher = more viable cells
- reportedConditions: 5 µM; treatment time 24 h; reporter: 7TFP
Where a name gives a salt, the structure may show the parent alone.
In your answer, state the number alone without any accompanying words.

Answered cases to consult:
{"molecule": "C[C@@H]1CCC[C@H](C)N1NC(=O)c1ccc(Cl)c(S(N)(=O)=O)c1", "cell viability": 1.04}
{"molecule": "COC(C)c1cccc2nc3c(C(=O)O)cccc3nc12 (stereo not given)", "cell viability": 1.03}
{"molecule": "C[C@@H]1C[C@H]2[C@@H]3C[C@H](F)C4=CC(=O)C=C[C@]4(C)[C@@]3(F)[C@@H](O)C[C@]2(C)[C@@]1(O)C(=O)CO", "cell viability": 1.05}
{"molecule": "CNC[C@H](O)c1ccc(O)c(O)c1", "cell viability": 1}

Return reported cell viability; argument: COc1cc(O)c2c(=O)cc(-c3ccc(OC)c(-c4c(O)cc(O)c5c(=O)cc(-c6ccc(O)cc6)oc45)c3)oc2c1 [GINKGETIN, K salt]
0.994

====

- Test system: SW480
- method: cell viability (CellTiter-Glo) relative to plate median (fraction of plate median); higher = more viable cells
- reportedConditions: 5 µM; treatment time 24 h; reporter: 7TFP
recordedEndpoint: cell viability
In your answer, state the number alone without any accompanying words.

{"compound": "C[C@H]1CC[C@@H](C(C)(C)O)CC2=C1CC[C@@H]2C", "quantitativeReadout": 0.972}

Moving on to the next compound.
Return reported cell viability; argument: CC(=O)Oc1cc2c(c(C)c1OC(C)=O)CC=C1[C@@]2(C)CC[C@@]2(C)C3C[C@](C)(C(=O)O)CC[C@]3(C)CC[C@]12C (stereo partly specified)
0.953

====

- Tested on: SW480
- method: cell viability (CellTiter-Glo) relative to plate median (fraction of plate median); higher = more viable cells
- reportedConditions: 5 µM; treatment time 24 h; reporter: 7TFP
recordedEndpoint: cell viability

Return reported cell viability; argument: O=[N+]([O-])c1cccc2c(Br)[nH]nc12
0.957

Return reported cell viability; argument: C[C@H]1[C@H](C)CC[C@]2(C(=O)O)CC[C@]3(C)C(=CC[C@@H]4[C@@]5(C)C[C@@H](O)[C@H](O)[C@@](C)(CO)[C@@H]5CC[C@]43C)[C@H]12
1.1

Return reported cell viability; argument: CC(=O)Nc1ccc(O)cc1
0.996

Return reported cell viability; argument: CCCNC(C)C(=O)Nc1ccccc1C (stereo unspecified)
1.03

Return reported cell viability; argument: Cc1coc2c1C(=O)C(=O)c1c-2ccc2c1CCCC2(C)C
1.05

Return reported cell viability; argument: COc1cc(/C=C/C(=O)O)ccc1O [Ferulic acid (Biofocus)]
1.02

Return reported cell viability; argument: O=[N+]([O-])c1cccc2cn[nH]c12
0.962

Return reported cell viability; argument: CC(C)CCCC(C)C1CCC2C3CCC4CCCCC4(C)C3CCC12C (stereo unspecified)
0.959

Return reported cell viability; argument: COc1ccc(-c2oc3ccccc3c(=O)c2O)cc1OC
1.05

Return reported cell viability; argument: CCCNCC(O)COc1ccccc1C(=O)CCc1ccccc1 (stereo unspecified)
0.927

Return reported cell viability; argument: CC(=O)OC/C=C(\C)CC/C=C(\C)CC/C=C(\C)CC/C=C(\C)CC/C=C(\C)CC/C=C(\C)CC/C=C(\C)CC/C=C(\C)CCC=C(C)C
1.06
